Ref: ChEMBL document CHEMBL1152609

Kindly supply the reported GI50 values for the records listed here.
# Assay procedure: Growth inhibition of human BT-483 cells after 48 hrs by MTT assay in presence of 10% FBS supplemented DMEM medium
# Type: functional
# Run conditions: BT-483, 48 h
The response must be a number in µM with no trailing unit.

Request: Value lookup for GI50; key = Cc1ccc(S(=O)(=O)N2CCN(Cc3cc([N+](=O)[O-])c4cccnc4c3O)CC2)cc1
Response: 1.9

Request: Bench note: what GI50 did CCN(CC)CCCC(C)Nc1ccnc2cc(Cl)ccc12 (stereo not drawn) show?
Response: 10.2

Request: // query GI50 value for entry Oc1c(CN2CCCCC2)ccc2cccnc12
Response: 26.9
